target: Am-CaV3 (Apis mellifera, UniProt A0ACM8RFK5); construct: full channel alpha1 subunit cloned from honeybee, mRNA injected in Xenopus oocytes, without CaVbeta; N-terminal region peptide CFDVPSSDGPSDPS (antibody antigen); experiment: two-electrode voltage clamp in Xenopus oocytes, Ba2+ current block
Sequence (A0ACM8RFK5 1-2566): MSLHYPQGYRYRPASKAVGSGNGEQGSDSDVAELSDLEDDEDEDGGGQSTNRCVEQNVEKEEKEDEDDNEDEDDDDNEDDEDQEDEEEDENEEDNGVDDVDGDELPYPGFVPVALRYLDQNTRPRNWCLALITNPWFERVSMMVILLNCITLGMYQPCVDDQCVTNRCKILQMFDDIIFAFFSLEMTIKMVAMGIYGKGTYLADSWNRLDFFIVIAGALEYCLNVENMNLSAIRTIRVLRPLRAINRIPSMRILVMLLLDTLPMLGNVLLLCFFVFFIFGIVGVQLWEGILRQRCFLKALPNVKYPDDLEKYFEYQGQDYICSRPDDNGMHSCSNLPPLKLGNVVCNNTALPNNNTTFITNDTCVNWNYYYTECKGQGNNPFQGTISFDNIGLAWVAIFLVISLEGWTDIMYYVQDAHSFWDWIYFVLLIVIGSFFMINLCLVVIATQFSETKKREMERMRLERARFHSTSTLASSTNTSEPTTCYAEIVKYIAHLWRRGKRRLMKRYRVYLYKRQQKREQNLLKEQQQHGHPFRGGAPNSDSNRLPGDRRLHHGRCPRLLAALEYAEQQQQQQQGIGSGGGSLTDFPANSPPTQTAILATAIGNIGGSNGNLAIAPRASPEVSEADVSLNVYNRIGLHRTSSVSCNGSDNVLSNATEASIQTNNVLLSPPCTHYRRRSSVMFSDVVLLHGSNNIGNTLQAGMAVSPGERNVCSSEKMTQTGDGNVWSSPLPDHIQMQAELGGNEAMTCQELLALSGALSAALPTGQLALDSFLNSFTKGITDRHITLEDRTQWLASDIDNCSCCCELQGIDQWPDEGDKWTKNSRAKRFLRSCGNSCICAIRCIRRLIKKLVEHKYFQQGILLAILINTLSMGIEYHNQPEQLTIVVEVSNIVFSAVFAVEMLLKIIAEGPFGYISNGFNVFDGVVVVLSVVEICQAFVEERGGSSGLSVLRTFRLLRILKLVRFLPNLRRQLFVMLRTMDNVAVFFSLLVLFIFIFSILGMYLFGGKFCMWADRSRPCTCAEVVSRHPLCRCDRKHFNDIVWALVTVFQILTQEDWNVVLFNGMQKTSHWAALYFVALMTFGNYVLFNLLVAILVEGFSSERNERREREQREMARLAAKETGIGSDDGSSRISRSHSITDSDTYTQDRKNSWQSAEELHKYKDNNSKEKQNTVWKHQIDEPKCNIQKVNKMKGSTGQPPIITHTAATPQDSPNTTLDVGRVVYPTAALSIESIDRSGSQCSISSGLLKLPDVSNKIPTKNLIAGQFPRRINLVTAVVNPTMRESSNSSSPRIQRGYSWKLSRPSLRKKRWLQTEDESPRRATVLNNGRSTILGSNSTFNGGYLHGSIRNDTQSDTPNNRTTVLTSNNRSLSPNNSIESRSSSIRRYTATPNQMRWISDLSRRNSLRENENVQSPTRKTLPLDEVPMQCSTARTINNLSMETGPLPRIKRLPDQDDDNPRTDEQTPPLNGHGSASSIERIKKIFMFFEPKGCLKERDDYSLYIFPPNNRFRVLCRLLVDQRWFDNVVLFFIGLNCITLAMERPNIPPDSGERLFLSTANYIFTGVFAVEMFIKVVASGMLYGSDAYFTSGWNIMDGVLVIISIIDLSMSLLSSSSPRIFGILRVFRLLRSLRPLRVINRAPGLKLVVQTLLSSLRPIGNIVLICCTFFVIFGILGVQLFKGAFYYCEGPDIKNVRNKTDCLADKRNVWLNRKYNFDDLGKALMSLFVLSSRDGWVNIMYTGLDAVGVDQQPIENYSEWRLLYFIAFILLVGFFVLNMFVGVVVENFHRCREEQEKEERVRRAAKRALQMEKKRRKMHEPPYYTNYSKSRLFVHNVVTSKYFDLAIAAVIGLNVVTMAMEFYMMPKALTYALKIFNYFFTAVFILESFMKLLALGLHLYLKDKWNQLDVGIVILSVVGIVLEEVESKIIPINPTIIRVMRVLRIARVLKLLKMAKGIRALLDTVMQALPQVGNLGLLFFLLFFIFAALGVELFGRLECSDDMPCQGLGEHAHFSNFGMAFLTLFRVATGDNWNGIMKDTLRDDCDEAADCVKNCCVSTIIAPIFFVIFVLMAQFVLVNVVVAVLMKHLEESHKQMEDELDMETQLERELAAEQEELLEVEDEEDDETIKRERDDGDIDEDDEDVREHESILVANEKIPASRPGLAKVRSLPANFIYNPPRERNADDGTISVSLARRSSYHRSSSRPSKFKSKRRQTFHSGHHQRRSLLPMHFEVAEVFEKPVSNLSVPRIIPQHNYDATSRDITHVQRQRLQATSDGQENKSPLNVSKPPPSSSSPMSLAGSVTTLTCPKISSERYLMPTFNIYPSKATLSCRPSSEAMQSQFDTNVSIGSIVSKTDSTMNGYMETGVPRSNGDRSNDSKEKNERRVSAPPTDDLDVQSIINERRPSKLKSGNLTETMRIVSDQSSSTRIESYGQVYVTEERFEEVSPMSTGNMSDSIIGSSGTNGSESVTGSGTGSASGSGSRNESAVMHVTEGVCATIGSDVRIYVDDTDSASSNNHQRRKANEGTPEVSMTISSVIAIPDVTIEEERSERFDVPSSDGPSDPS
endpointName: pEC50
pEC50 (log units): -log10 of the concentration in mol/L.

// sample COCC(=O)O[C@]1(CCN(C)CCCc2nc3ccccc3[nH]2)CCc2cc(F)ccc2[C@@H]1C(C)C , its pEC50 was 5.46
